molecular target: EBOV NP (Zaire ebolavirus, UniProt P18272); format: binding, Ebola virus
Sequence (P18272 36-351 limits assumed): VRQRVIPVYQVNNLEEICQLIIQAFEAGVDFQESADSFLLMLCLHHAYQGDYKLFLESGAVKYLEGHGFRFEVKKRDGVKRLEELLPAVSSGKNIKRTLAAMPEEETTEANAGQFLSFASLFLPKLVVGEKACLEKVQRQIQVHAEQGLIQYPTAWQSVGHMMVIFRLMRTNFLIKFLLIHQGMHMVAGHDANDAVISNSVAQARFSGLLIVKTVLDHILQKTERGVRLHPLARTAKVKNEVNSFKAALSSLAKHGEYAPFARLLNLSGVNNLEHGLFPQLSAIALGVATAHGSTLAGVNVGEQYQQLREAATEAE
Listed here are compounds together with their documented △Tm.
Note: unit °C is implicit; provide only the numeric part.

So what's the measured △Tm for this one? O=c1cc(-c2ccc(O)cc2)oc2c([C@@H]3OC[C@H](O)[C@H](O)[C@H]3O)c(O)c([C@@H]3O[C@H](CO)[C@@H](O)[C@H](O)[C@H]3O)c(O)c12 [GC3, Schaftoside]
−0.6

Also, "C=CC(C)(C)c1cc(/C=C/C(=O)c2ccc(O)cc2)c(OC)cc1O" please.
−3.2

Same thing, different compound: "CC1(C)[C@@H](O[C@H]2O[C@H](C(=O)O)[C@@H](O)[C@H](O)[C@H]2O[C@@H]2O[C@H](C(=O)O)[C@@H](O)[C@H](O)[C@H]2O)CC[C@]2(C)[C@H]3C(=O)C=C4[C@@H]5C[C@@](C)(C(=O)O)CC[C@]5(C)CC[C@@]4(C)[C@]3(C)CC[C@@H]12"
0.1

New cases:
// returns reported △Tm for input "COc1ccc(-c2coc3cc(O[C@@H]4O[C@H](CO)[C@@H](O)[C@H](O)[C@H]4O)ccc3c2=O)cc1"
−0.2

Can you check CC1(C(=O)O)CCC2(C)CCC3(C)C(=CC(=O)C4C5(C)CCC(O)C(C)(C)C5CCC43C)C2C1 (centres unmarked) next?
−9.2

====

target: MARV NP (amino acids 19–370) (Lake Victoria marburgvirus, UniProt P27588); format: binding, Marburg virus
Sequence (P27588 19-370 limits assumed): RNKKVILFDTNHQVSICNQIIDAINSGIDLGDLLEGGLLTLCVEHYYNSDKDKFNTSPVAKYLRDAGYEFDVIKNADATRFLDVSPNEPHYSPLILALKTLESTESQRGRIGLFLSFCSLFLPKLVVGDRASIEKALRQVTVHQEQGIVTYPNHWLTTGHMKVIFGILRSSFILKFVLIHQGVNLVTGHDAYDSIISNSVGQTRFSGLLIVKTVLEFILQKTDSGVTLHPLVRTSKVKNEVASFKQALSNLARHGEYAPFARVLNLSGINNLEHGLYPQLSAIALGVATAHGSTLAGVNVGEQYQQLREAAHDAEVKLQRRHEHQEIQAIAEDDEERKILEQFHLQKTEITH
Readings of S/N ratio (peak intensity protein incubation sample vs control) for the listed compounds
Note: the reply should be a number with no unit written.

Reported S/N ratio (peak intensity protein incubation sample vs control) for "O=C1C[C@@H](c2ccc(O)cc2)Oc2cc(O)ccc21" : what is it?
1.28

Please answer likewise for CC1(C(=O)O)CCC2(C)CCC3(C)C(=CC(=O)C4C5(C)CCC(O)C(C)(C)C5CCC43C)C2C1 (stereo not shown)
2.79

For "CC1(C)[C@@H](O)CC[C@]2(C)[C@H]3C(=O)C=C4[C@H]5C[C@@](C)(C(=O)O)CC[C@]5(C)CC[C@@]4(C)[C@]3(C)CC[C@@H]12" then?
2.79

Request: "COc1ccc(-c2coc3cc(O[C@@H]4O[C@H](CO)[C@@H](O)[C@H](O)[C@H]4O)ccc3c2=O)cc1"
1.18

Try this compound too: O=c1cc(-c2ccc(O)cc2)oc2c([C@@H]3OC[C@H](O)[C@H](O)[C@H]3O)c(O)c([C@@H]3O[C@H](CO)[C@@H](O)[C@H](O)[C@H]3O)c(O)c12 [GC3, Schaftoside]
1.67

Another compound to look at: "O=C1C[C@@H](c2ccc(O)cc2)Oc2cc(O[C@@H]3O[C@H](CO)[C@@H](O)[C@H](O)[C@H]3O)ccc21"
1.87

Then what about the compound "O=C1C[C@@H](c2ccc(O[C@@H]3O[C@H](CO)[C@@H](O)[C@H](O)[C@H]3O)cc2)Oc2cc(O)ccc21" ?
1.87

Cool, now "O=C(/C=C/c1ccc(O[C@@H]2O[C@H](CO)[C@@H](O)[C@H](O)[C@H]2O)cc1)c1ccc(O)cc1O"
1.61

More entries:
Query: S/N ratio (peak intensity protein incubation sample vs control); subject: "O=C(/C=C/c1ccc(O)cc1)c1ccc(O[C@@H]2O[C@H](CO)[C@@H](O)[C@H](O)[C@H]2O)cc1O"
1.59

Also "COc1ccc(-c2coc3cc(O)ccc3c2=O)cc1O" , if possible.
1.60

"O=C(/C=C/c1ccc(O)cc1)c1ccc(O)cc1O" , same question.
1.08

Do the same for "CC1(C)[C@@H](O[C@H]2O[C@H](C(=O)O)[C@@H](O)[C@H](O)[C@H]2O[C@@H]2O[C@H](C(=O)O)[C@@H](O)[C@H](O)[C@H]2O)CC[C@]2(C)[C@H]3C(=O)C=C4[C@@H]5C[C@@](C)(C(=O)O)CC[C@]5(C)CC[C@@]4(C)[C@]3(C)CC[C@@H]12" please
1.46

Here is the next compound: "C=CC(C)(C)c1cc(/C=C/C(=O)c2ccc(O)cc2)c(OC)cc1O"
6.54

====

biological target: MARV NP (Lake Victoria marburgvirus, UniProt P27588); format: binding, Marburg virus
Rule: Corr response (SPR) under 5 RU gives Not fulfilled, otherwise Fulfilled.

See these solved cases before continuing.
Has CC1(C(=O)O)CCC2(C)CCC3(C)C(=CC(=O)C4C5(C)CCC(O)C(C)(C)C5CCC43C)C2C1 (stereo not drawn) [GC7, 18β-Glycyrrhetinic acid] a recorded Corr response (SPR) greater than or equal to 5 RU?
Fulfilled

// next record O=c1cc(-c2ccc(O)cc2)oc2c([C@@H]3OC[C@H](O)[C@H](O)[C@H]3O)c(O)c([C@@H]3O[C@H](CO)[C@@H](O)[C@H](O)[C@H]3O)c(O)c12 [GC3, Schaftoside]
Not fulfilled

Follow-up item: C=CC(C)(C)c1cc(/C=C/C(=O)c2ccc(O)cc2)c(OC)cc1O [GC13, Licochalcone A]
Fulfilled

Now consider O=C1C[C@@H](c2ccc(O)cc2)Oc2cc(O[C@@H]3O[C@H](CO)[C@@H](O)[C@H](O)[C@H]3O)ccc21 [GC2, Neoliquiritin] and answer again.
Not fulfilled

API: the following record is the query input.
Determine whether measured Corr response (SPR) meets or exceeds 5 RU for CC1(C)[C@@H](O)CC[C@]2(C)[C@H]3C(=O)C=C4[C@H]5C[C@@](C)(C(=O)O)CC[C@]5(C)CC[C@@]4(C)[C@]3(C)CC[C@@H]12 [GC10, 18α-Glycyrrhetinic acid]
Fulfilled

====

molecular target: EBOV NP (Zaire ebolavirus, UniProt P18272); assay type: binding, Ebola virus
Below is a list of entries, each paired with its recorded Corr response (SPR) value.
Give your result in RU as a bare value.

Checklist item: Corr response (SPR) tested on EBOV NP (Zaire ebolavirus, UniProt P18272), entry CC1(C)[C@@H](O)CC[C@]2(C)[C@H]3C(=O)C=C4[C@H]5C[C@@](C)(C(=O)O)CC[C@]5(C)CC[C@@]4(C)[C@]3(C)CC[C@@H]12 [GC10, 18α-Glycyrrhetinic acid] , value?
8.8

Do the same for C=CC(C)(C)c1cc(/C=C/C(=O)c2ccc(O)cc2)c(OC)cc1O [GC13, Licochalcone A] please
43.8

Now try CC1(C(=O)O)CCC2(C)CCC3(C)C(=CC(=O)C4C5(C)CCC(O)C(C)(C)C5CCC43C)C2C1 (stereo not drawn) [GC7, 18β-Glycyrrhetinic acid] .
128

Same question for O=C1C[C@@H](c2ccc(O)cc2)Oc2cc(O[C@@H]3O[C@H](CO)[C@@H](O)[C@H](O)[C@H]3O)ccc21 [GC2, Neoliquiritin] please.
2.0

Next molecule: O=c1cc(-c2ccc(O)cc2)oc2c([C@@H]3OC[C@H](O)[C@H](O)[C@H]3O)c(O)c([C@@H]3O[C@H](CO)[C@@H](O)[C@H](O)[C@H]3O)c(O)c12 [GC3, Schaftoside]
2.9

====

biological target: MARV NP (Lake Victoria marburgvirus); type: binding, Marburg virus
Property: △Tm (°C)
Write the number in °C without appending the unit.

Some solved entries appear below for comparison.
Please report the recorded △Tm for O=c1cc(-c2ccc(O)cc2)oc2c([C@@H]3OC[C@H](O)[C@H](O)[C@H]3O)c(O)c([C@@H]3O[C@H](CO)[C@@H](O)[C@H](O)[C@H]3O)c(O)c12 [GC3, Schaftoside] .
−0.4

Again, but for CC1(C(=O)O)CCC2(C)CCC3(C)C(=CC(=O)C4C5(C)CCC(O)C(C)(C)C5CCC43C)C2C1 (centres unmarked)
−1.1

Same question for "O=C(/C=C/c1ccc(O)cc1)c1ccc(O[C@@H]2O[C@H](CO)[C@@H](O)[C@H](O)[C@H]2O)cc1O" please.
0.2

Next:
Bench note: what △Tm did "CC1(C)[C@@H](O)CC[C@]2(C)[C@H]3C(=O)C=C4[C@H]5C[C@@](C)(C(=O)O)CC[C@]5(C)CC[C@@]4(C)[C@]3(C)CC[C@@H]12" show?
−0.2

Could you do the same for "C=CC(C)(C)c1cc(/C=C/C(=O)c2ccc(O)cc2)c(OC)cc1O" , please?
0.7
